- Test system: Staphylococcus aureus ATCC 6738P
- measurementNotes: agar-plate disc-diffusion test
- Format: cell-based
- runParameters: suspended in water at 1 mg/ml; 7 mm disc; 24-48 hours at 25-37° C.
experimentalEndpoint: Size of Zone of Inhibition (mm) Staphylococcus aureus ATCC 6738P

>  <molecule>
CCCCCCCCCCCCCCCC(=O)N[C@@H](Cc1c[nH]c2ccccc12)C(=O)N[C@@H](CC(N)=O)C(=O)N[C@@H](CC(=O)O)C(=O)N[C@@H]1C(=O)NCC(=O)N[C@@H](CCCN)C(=O)N[C@@H](CC(=O)O)C(=O)N[C@H](C)C(=O)N[C@@H](CC(=O)O)C(=O)NCC(=O)N[C@H](CO)C(=O)N[C@@H]([C@H](C)CC(=O)O)C(=O)N[C@@H](CC(=O)c2ccccc2N)C(=O)O[C@@H]1C

>  <assayTarget>
Staphylococcus aureus ATCC 6738P

>  <dataValue>
19 mm

$$$$
>  <molecule>
CCCCCCCCCCCC(=O)N[C@@H](Cc1c[nH]c2ccccc12)C(=O)N[C@@H](CC(N)=O)C(=O)N[C@@H](CC(=O)O)C(=O)N[C@@H]1C(=O)NCC(=O)N[C@@H](CCCN)C(=O)N[C@@H](CC(=O)O)C(=O)N[C@H](C)C(=O)N[C@@H](CC(=O)O)C(=O)NCC(=O)N[C@H](CO)C(=O)N[C@@H]([C@H](C)CC(=O)O)C(=O)N[C@@H](CC(=O)c2ccccc2N)C(=O)O[C@@H]1C

>  <assayTarget>
Staphylococcus aureus ATCC 6738P

>  <dataValue>
25 mm

$$$$
>  <molecule>
CCC(C)CCCCCCC(=O)N[C@@H](Cc1c[nH]c2ccccc12)C(=O)N[C@@H](CC(N)=O)C(=O)N[C@@H](CC(=O)O)C(=O)N[C@@H]1C(=O)NCC(=O)N[C@@H](CCCNC(C)=O)C(=O)N[C@@H](CC(=O)O)C(=O)N[C@H](C)C(=O)N[C@@H](CC(=O)O)C(=O)NCC(=O)N[C@H](CO)C(=O)N[C@@H]([C@H](C)CC(=O)O)C(=O)N[C@@H](CC(=O)c2ccccc2N)C(=O)O[C@@H]1C (some centres unmarked)

>  <assayTarget>
Staphylococcus aureus ATCC 6738P

>  <dataValue>
21 mm

$$$$
>  <molecule>
CCCCCCCCCCCCC(=O)N[C@@H](Cc1c[nH]c2ccccc12)C(=O)N[C@@H](CC(N)=O)C(=O)N[C@@H](CC(=O)O)C(=O)N[C@@H]1C(=O)NCC(=O)N[C@@H](CCCN)C(=O)N[C@@H](CC(=O)O)C(=O)N[C@H](C)C(=O)N[C@@H](CC(=O)O)C(=O)NCC(=O)N[C@H](CO)C(=O)N[C@@H]([C@H](C)CC(=O)O)C(=O)N[C@@H](CC(=O)c2ccccc2N)C(=O)O[C@@H]1C

>  <assayTarget>
Staphylococcus aureus ATCC 6738P

>  <dataValue>
21 mm

$$$$
>  <molecule>
CCCCCCCCCCCCCCC(=O)N[C@@H](Cc1c[nH]c2ccccc12)C(=O)N[C@@H](CC(N)=O)C(=O)N[C@@H](CC(=O)O)C(=O)N[C@@H]1C(=O)NCC(=O)N[C@@H](CCCN)C(=O)N[C@@H](CC(=O)O)C(=O)N[C@H](C)C(=O)N[C@@H](CC(=O)O)C(=O)NCC(=O)N[C@H](CO)C(=O)N[C@@H]([C@H](C)CC(=O)O)C(=O)N[C@@H](CC(=O)c2ccccc2N)C(=O)O[C@@H]1C

>  <assayTarget>
Staphylococcus aureus ATCC 6738P

>  <dataValue>
20 mm

$$$$

----------
- Tested on: Staphylococcus aureus X400
- Type: cell-based
- runParameters: methicillin-resistant strain; agar dilution; 2, 5, 17, 22 median of three tests; paired values two experiments

>  <smilesStr>
CCCCCCCCCCC(=O)N[C@@H](Cc1c[nH]c2ccccc12)C(=O)N[C@@H](CC(N)=O)C(=O)N[C@@H](CC(=O)O)C(=O)N[C@@H]1C(=O)NCC(=O)N[C@@H](CCCN)C(=O)N[C@@H](CC(=O)O)C(=O)N[C@H](C)C(=O)N[C@@H](CC(=O)O)C(=O)NCC(=O)N[C@H](CO)C(=O)N[C@@H]([C@H](C)CC(=O)O)C(=O)N[C@@H](CC(=O)c2ccccc2N)C(=O)O[C@@H]1C

>  <assayTarget>
Staphylococcus aureus X400

>  <measurementUnits>
µg/mL

>  <MIC Staphylococcus aureus X400>
0.5

$$$$
>  <smilesStr>
CCCCCCCC(=O)N[C@@H](Cc1c[nH]c2ccccc12)C(=O)N[C@@H](CC(N)=O)C(=O)N[C@@H](CC(=O)O)C(=O)N[C@@H]1C(=O)NCC(=O)N[C@@H](CCCN)C(=O)N[C@@H](CC(=O)O)C(=O)N[C@H](C)C(=O)N[C@@H](CC(=O)O)C(=O)NCC(=O)N[C@H](CO)C(=O)N[C@@H]([C@H](C)CC(=O)O)C(=O)N[C@@H](CC(=O)c2ccccc2N)C(=O)O[C@@H]1C

>  <assayTarget>
Staphylococcus aureus X400

>  <measurementUnits>
µg/mL

>  <MIC Staphylococcus aureus X400>
8

$$$$
>  <smilesStr>
CCCCCCC(=O)N[C@@H](Cc1c[nH]c2ccccc12)C(=O)N[C@@H](CC(N)=O)C(=O)N[C@@H](CC(=O)O)C(=O)N[C@@H]1C(=O)NCC(=O)N[C@@H](CCCN)C(=O)N[C@@H](CC(=O)O)C(=O)N[C@H](C)C(=O)N[C@@H](CC(=O)O)C(=O)NCC(=O)N[C@H](CO)C(=O)N[C@@H]([C@H](C)CC(=O)O)C(=O)N[C@@H](CC(=O)c2ccccc2N)C(=O)O[C@@H]1C

>  <assayTarget>
Staphylococcus aureus X400

>  <measurementUnits>
µg/mL

>  <MIC Staphylococcus aureus X400>
8

$$$$

----------
- Tested on: Streptococcus pyogenes
- measurementNotes: in vivo activity against experimental bacterial infection (ED50)
- runParameters: mice; two doses orally; dose protecting fifty percent of test animals
Reported ED50 Streptococcus pyogenes Oral by item:
experimentalEndpoint: ED50 Streptococcus pyogenes Oral

>  <compound>
CCC(C)CCCCCCC(=O)N[C@@H](Cc1c[nH]c2ccccc12)C(=O)N[C@@H](CC(N)=O)C(=O)N[C@@H](CC(=O)O)C(=O)N[C@@H]1C(=O)NCC(=O)N[C@@H](CCCNC(=O)CCC(=O)O)C(=O)N[C@@H](CC(=O)O)C(=O)N[C@H](C)C(=O)N[C@@H](CC(=O)O)C(=O)NCC(=O)N[C@H](CO)C(=O)N[C@@H]([C@H](C)CC(=O)O)C(=O)N[C@@H](CC(=O)c2ccccc2N)C(=O)O[C@@H]1C (stereo partly drawn)

>  <dataValue>
> 200 mg/kg × 2

$$$$
>  <compound>
CCCCCCCCCCCCCCCC(=O)N[C@@H](Cc1c[nH]c2ccccc12)C(=O)N[C@@H](CC(N)=O)C(=O)N[C@@H](CC(=O)O)C(=O)N[C@@H]1C(=O)NCC(=O)N[C@@H](CCCN)C(=O)N[C@@H](CC(=O)O)C(=O)N[C@H](C)C(=O)N[C@@H](CC(=O)O)C(=O)NCC(=O)N[C@H](CO)C(=O)N[C@@H]([C@H](C)CC(=O)O)C(=O)N[C@@H](CC(=O)c2ccccc2N)C(=O)O[C@@H]1C

>  <dataValue>
> 200 mg/kg × 2

$$$$
>  <compound>
CCCCCCCCCCCCC(=O)N[C@@H](Cc1c[nH]c2ccccc12)C(=O)N[C@@H](CC(N)=O)C(=O)N[C@@H](CC(=O)O)C(=O)N[C@@H]1C(=O)NCC(=O)N[C@@H](CCCN)C(=O)N[C@@H](CC(=O)O)C(=O)N[C@H](C)C(=O)N[C@@H](CC(=O)O)C(=O)NCC(=O)N[C@H](CO)C(=O)N[C@@H]([C@H](C)CC(=O)O)C(=O)N[C@@H](CC(=O)c2ccccc2N)C(=O)O[C@@H]1C

>  <dataValue>
45 mg/kg × 2

$$$$
>  <compound>
C=CCCCCCCCCC(=O)N[C@@H](Cc1c[nH]c2ccccc12)C(=O)N[C@@H](CC(N)=O)C(=O)N[C@@H](CC(=O)O)C(=O)N[C@@H]1C(=O)NCC(=O)N[C@@H](CCCN)C(=O)N[C@@H](CC(=O)O)C(=O)N[C@H](C)C(=O)N[C@@H](CC(=O)O)C(=O)NCC(=O)N[C@H](CO)C(=O)N[C@@H]([C@H](C)CC(=O)O)C(=O)N[C@@H](CC(=O)c2ccccc2N)C(=O)O[C@@H]1C

>  <dataValue>
138 mg/kg × 2

$$$$
>  <compound>
CCCCCCCC(=O)N[C@@H](Cc1c[nH]c2ccccc12)C(=O)N[C@@H](CC(N)=O)C(=O)N[C@@H](CC(=O)O)C(=O)N[C@@H]1C(=O)NCC(=O)N[C@@H](CCCN)C(=O)N[C@@H](CC(=O)O)C(=O)N[C@H](C)C(=O)N[C@@H](CC(=O)O)C(=O)NCC(=O)N[C@H](CO)C(=O)N[C@@H]([C@H](C)CC(=O)O)C(=O)N[C@@H](CC(=O)c2ccccc2N)C(=O)O[C@@H]1C

>  <dataValue>
> 200 mg/kg × 2

$$$$
>  <compound>
CCCCCCCCCCCC(=O)N[C@@H](Cc1c[nH]c2ccccc12)C(=O)N[C@@H](CC(N)=O)C(=O)N[C@@H](CC(=O)O)C(=O)N[C@@H]1C(=O)NCC(=O)N[C@@H](CCCN)C(=O)N[C@@H](CC(=O)O)C(=O)N[C@H](C)C(=O)N[C@@H](CC(=O)O)C(=O)NCC(=O)N[C@H](CO)C(=O)N[C@@H]([C@H](C)CC(=O)O)C(=O)N[C@@H](CC(=O)c2ccccc2N)C(=O)O[C@@H]1C

>  <dataValue>
69 mg/kg × 2

$$$$
>  <compound>
CCCCCCCCCCCCCCC(=O)N[C@@H](Cc1c[nH]c2ccccc12)C(=O)N[C@@H](CC(N)=O)C(=O)N[C@@H](CC(=O)O)C(=O)N[C@@H]1C(=O)NCC(=O)N[C@@H](CCCN)C(=O)N[C@@H](CC(=O)O)C(=O)N[C@H](C)C(=O)N[C@@H](CC(=O)O)C(=O)NCC(=O)N[C@H](CO)C(=O)N[C@@H]([C@H](C)CC(=O)O)C(=O)N[C@@H](CC(=O)c2ccccc2N)C(=O)O[C@@H]1C

>  <dataValue>
> 200 mg/kg × 2

$$$$
>  <compound>
CCCCC=CCCCCCCCC(=O)N[C@@H](Cc1c[nH]c2ccccc12)C(=O)N[C@@H](CC(N)=O)C(=O)N[C@@H](CC(=O)O)C(=O)N[C@@H]1C(=O)NCC(=O)N[C@@H](CCCN)C(=O)N[C@@H](CC(=O)O)C(=O)N[C@H](C)C(=O)N[C@@H](CC(=O)O)C(=O)NCC(=O)N[C@H](CO)C(=O)N[C@@H]([C@H](C)CC(=O)O)C(=O)N[C@@H](CC(=O)c2ccccc2N)C(=O)O[C@@H]1C

>  <dataValue>
75 mg/kg × 2

$$$$
>  <compound>
CCCCCCCCCCCCCC(=O)N[C@@H](Cc1c[nH]c2ccccc12)C(=O)N[C@@H](CC(N)=O)C(=O)N[C@@H](CC(=O)O)C(=O)N[C@@H]1C(=O)NCC(=O)N[C@@H](CCCN)C(=O)N[C@@H](CC(=O)O)C(=O)N[C@H](C)C(=O)N[C@@H](CC(=O)O)C(=O)NCC(=O)N[C@H](CO)C(=O)N[C@@H]([C@H](C)CC(=O)O)C(=O)N[C@@H](CC(=O)c2ccccc2N)C(=O)O[C@@H]1C

>  <dataValue>
< 50 mg/kg × 2

$$$$
